Entry source: ChEMBL document CHEMBL6078671

Answer each item with its documented MFC.
- Tested on: Nakaseomyces glabratus
- procedure-summary: Fungicidal activity against Candida glabrata ATCC 90030 incubated for 24 hrs followed by replacement of medium without compound measured after 48 hrs
- Type: functional
Give bare numbers, in µg/mL.

compound-string	MFC (µg/mL)
CCC(=O)Nc1cc(C(=O)NCc2cn([C@@H]3O[C@H](CO)[C@H](O)[C@H](O)[C@H]3O)nn2)cc(C(=O)NCc2cn([C@@H]3O[C@H](CO)[C@H](O)[C@@H](O)[C@@H]3O)nn2)c1	10000

# evaluate next
Query string: // lookup MFC for C=CS(=O)(=O)Nc1cc(C(=O)NCc2cn([C@@H]3O[C@H](CO)[C@H](O)[C@H](O)[C@H]3O)nn2)cc(C(=O)NCc2cn([C@@H]3O[C@H](CO)[C@H](O)[C@@H](O)[C@@H]3O)nn2)c1
Result string: 10000
